Assay Target: T1, SIRP-α cynomolgus (cynomolgus, UniProt A0A2K5VYQ9 31-148)
T1 construct: Soluble analyte in SPR; also called cynomologous monkey SIRP-α
T1 sequence: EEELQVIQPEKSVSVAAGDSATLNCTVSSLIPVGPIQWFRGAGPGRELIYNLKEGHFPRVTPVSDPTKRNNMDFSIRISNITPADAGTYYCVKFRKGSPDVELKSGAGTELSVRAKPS
Experiment Summary: SPR, antibody on GLC chip, SIRP as analyte
Rule: Kd below 0.1 nM gives yes (1), anything at or above gives no (0).

Input: Confirm or reject: Kd of Anti-SIRP-α antibody 135, light chain wt, heavy chain Mut_V34M (antibody, V domains shown, Whole antibody) VH: EVQLVESGGGVVQPGGSLRLSCAASGFSFSIYAMSWVRQAPGKGLEWVSTIGADDTYYADSVKGRFTISRDNSKNTLYLQMNSLRAEDTAVYYCAKDSTVGWSGDFFDYWGQGTLVTVSS VL: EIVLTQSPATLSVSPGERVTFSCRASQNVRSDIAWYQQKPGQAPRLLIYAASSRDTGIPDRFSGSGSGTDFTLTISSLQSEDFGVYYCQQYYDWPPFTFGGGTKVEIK lies strictly below 0.1 nM
Output: yes (1)

Input: Consider the binder Anti-SIRP-α antibody 135, light chain wt, heavy chain wt (antibody, V domains shown, Whole antibody) VH: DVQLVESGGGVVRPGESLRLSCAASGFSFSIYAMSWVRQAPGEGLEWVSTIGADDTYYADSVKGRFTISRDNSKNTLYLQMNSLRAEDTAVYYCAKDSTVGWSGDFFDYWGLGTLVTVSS VL: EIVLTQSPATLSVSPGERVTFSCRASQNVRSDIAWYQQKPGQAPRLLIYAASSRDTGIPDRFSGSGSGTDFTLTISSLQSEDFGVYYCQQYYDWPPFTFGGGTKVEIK . Is its Kd strictly less than 0.1 nM?
Output: yes (1)

Input: Determine whether this binder shows Kd lower than 0.1 nM (ties excluded): Hum1/AB21_HC_Mutall (antibody, V domains shown, Whole antibody) VH: EVQLVESGGGVVQPGGSLRLSCAASGFTFSSNAMSWVRQAPGKGLEWVAGISAGGSDTYYPASVKGRFTISRDNSKNTLYLQMNSLRAEDTAVYYCARETWNHLFDYWGQGTLVTVSS VL: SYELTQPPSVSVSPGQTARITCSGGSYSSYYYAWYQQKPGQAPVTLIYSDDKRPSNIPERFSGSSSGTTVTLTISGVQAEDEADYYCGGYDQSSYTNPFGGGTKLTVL
Output: yes (1)

Input: Just wondering, is Kd of Hum9/AB21_HC_Mutall (antibody, V domains shown, Whole antibody) VH: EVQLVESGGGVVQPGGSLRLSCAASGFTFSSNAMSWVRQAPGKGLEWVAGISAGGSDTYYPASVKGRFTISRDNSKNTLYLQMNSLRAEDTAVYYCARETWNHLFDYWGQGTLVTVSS VL: SYELTQPPSVSVSPGQTARITCSGGAYSSYYYAWYQQKPGQAPVLVIYSDDKRPSGIPERFSGSSSGTTVTLTISGVQAEDEADYYCGGYDQSSYTNPFGGGTKLTVL below 0.1 nM?
Output: no (0)

Input: Hi there! Is Kd for Anti-SIRP-α antibody 136, light chain Mut_I2T, heavy chain Mut_V34M (antibody, V domains shown, Whole antibody) VH: EVQLVESGGGVVQPGRSLRLSCAASGFTFSSYDMNWVRQAPGKGLEWVSLISGSGEIIYYADSVKGRFTISRDNSKNTLYLQMNSLRAEDTAVYYCAKENNRYRFFDDWGQGTLVTVSS VL: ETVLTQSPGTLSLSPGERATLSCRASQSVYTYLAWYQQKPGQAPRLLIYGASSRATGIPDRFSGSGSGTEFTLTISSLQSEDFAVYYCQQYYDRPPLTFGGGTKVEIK below 0.1 nM, do you know?
Output: no (0)
